assay: Metabolic stability in human liver microsomes; format: in vitro ADME; settings: pH 7.4, half life, values marked * average of two experiments
Quantity Measured: half-life at 0.2 μM (h)

compound="[2H]C([2H])([2H])N1CCc2[nH]c3cc(OC)ccc3c2CC1 [Compound 2]" quantity_measured="half-life at 0.2 μM" readout_number=1.4
compound="COc1ccc2c3c([nH]c2c1)CCN(C)CC3 [TBG, reference compound]" quantity_measured="half-life at 0.2 μM" readout_number=1.5
compound="[2H]C([2H])([2H])Oc1ccc2c3c([nH]c2c1)CCN(C([2H])([2H])[2H])CC3 [Compound 3]" quantity_measured="half-life at 0.2 μM" readout_number=1.38
compound="[2H]C([2H])([2H])Oc1ccc2c3c([nH]c2c1)CCNCC3 [Compound 163]" quantity_measured="half-life at 0.2 μM" readout_number=1.44
compound="COc1ccc2c3c([nH]c2c1)CCNCC3 [reference compound]" quantity_measured="half-life at 0.2 μM" readout_number=1.82
compound="[2H]C([2H])([2H])Oc1ccc2c3c([nH]c2c1)CCN(C)CC3 [Compound 1]" quantity_measured="half-life at 0.2 μM" readout_number=1.35
